Origin of values: a melting point compilation (Tetko et al.; mined from patent text by program, amines drawn as free bases though some values may be those of a salt)

Listed compounds paired with reported melting point

Given O=C(NCC1Cc2ccc3ccccc3c2O1)OCc1ccccc1 (stereo unspecified) , state its recorded melting point.
110 to 112 °C

Now the same for CN1CCC2(CC1)Nc1ccccc1S2
135 to 140 °C

Now the same for CSc1ccc(-c2coc3ccc(-c4nnc(O)o4)cc23)cc1
211 to 212 °C

Now the same for O=C(O)C1CCC2C(=O)N(c3ccccc3)C(=S)N12 (stereo unspecified)
230 °C

Now the same for NC(=O)c1cc(C(F)(F)F)cc(F)c1F
128 to 130 °C

Now the same for Cc1c(NC(=O)c2ccc(C(C)(C)C)cc2)cccc1-c1cc(Br)c(=O)n(C)c1
149 to 151 °C

Now the same for N#Cc1c(-c2ccccc2)c(-c2ccccc2)nn(CCCO)c1=O
156 to 157 °C
